These measurements were taken from PubChem BioAssay (NCI).

TGI values by entry
# Test system: BT-549 breast
# Assay Details: NCI tumour cell line growth inhibition, 48 h
Where a SMILES comes first, the peptide text is derived from it. [ ]: non-standard residue; d: D form. The star is where a group is joined. Bn2Val = CC(C)[C@@H](C(=O)*)N(Cc1ccccc1)Cc1ccccc1; NH(3,4-diMeO-benzyl) = COc1ccc(CN*)cc1OC; NMeV = CN[C@H](C(=O)O)C(C)C
Quick note: give the figure in µM, leave out the unit.

Worked examples follow.
- Compound: "C=C(CN(C)C)C(=O)c1ccc(Oc2ccccc2)cc1"
  Value: 12.9
- Compound: "COc1ccc(CNC(=O)[C@@H]2CCCN2C(=O)[C@@H]2CCCN2C(=O)[C@H](C(C)C)N(C)C(=O)[C@@H](NC(=O)[C@H](C(C)C)N(Cc2ccccc2)Cc2ccccc2)C(C)C)cc1OC (Bn2Val-V[NMeV]PP-{NH(3,4-diMeO-benzyl)})"
  Value: 34.5
- Compound: "CC1=C[C@@H]2[C@@H](CC(CO)=C[C@H]3[C@@H]4C(C)(C)[C@]4(OCC(C)C)[C@H](OCC(C)C)[C@@H](C)[C@]23O)C1=O"
  Value: 2.65

Respond only with TGI recorded for `CN1CCN(CC(=O)N2c3cccc4cccc(c34)N(C(=O)CN3CCN(C)CC3)C2c2cn(-c3ccccc3)nc2-c2cccc([N+](=O)[O-])c2)CC1` 3.26

###

# System: HOP-62 NSCLC
# Assay Details: NCI tumour cell line growth inhibition, 48 h
Property: TGI

Worked examples follow.
- Compound: "FC(F)(F)c1nc(-c2ccccc2)oc1Sc1oc(-c2ccccc2)nc1C(F)(F)F"
  TGI: "> 100 µM"
- Compound: "COc1ccc2nc3ccccc3c(NCc3ccc(C)cc3)c2c1"
  TGI: "3.7 µM"

Given `c1ccc2c(c1)[nH]c1c2ncc2[nH]c3ccccc3c21` , report its TGI on HOP-62 NSCLC. 19.4 µM

Given `Clc1ccc2c(NCCNc3nc(N4CCCC4)nc4ccccc34)ccnc2c1` , report its TGI on HOP-62 NSCLC. 3.49 µM

Given `O=C(Nc1ccc(Cl)cc1)NS(=O)(=O)c1c(-c2ccccc2)oc2ccccc2c1=O` , report its TGI on HOP-62 NSCLC. > 100 µM

Given `O=C(OCc1ccccc1)N1CCCc2c(n(S(=O)(=O)c3ccccc3)c3ccccc23)C1` , report its TGI on HOP-62 NSCLC. > 100 µM

Given NC(CC(=O)O)(Cc1ccccc1)C(=O)O (configuration not stated) , report its TGI on HOP-62 NSCLC. > 100 µM

###

# Tested on: SNB-75 CNS
# Assay Details: NCI tumour cell line growth inhibition, 48 h
Property: TGI (µM)
Quick note: give the figure in µM, leave out the unit.

Worked examples follow.
- Compound: "CN(C)Cc1cc(/C=C/C(=O)c2ccc(Cl)c(Cl)c2)cc(CN(C)C)c1O"
  Value: 21.1
- Compound: "CC(C)C1COC(c2ccc3ccccc3c2-c2c(O[Si](C)(C)C(C)(C)C)ccc3ccccc23)=N1 (stereo not given)"
  Value: 32.5

Respond only with TGI recorded for `COC(=O)[C@H](COC(=O)/C=C/c1ccc(OC(C)=O)c(OC(C)=O)c1)NC(=O)/C=C/c1ccc(OC(C)=O)c(OC(C)=O)c1` 30.1

Respond only with TGI recorded for COc1cccc(C2c3cc4c(cc3OC(N3CCCCC3)C2C)OCO4)c1OC (stereo not given) 66.7

Respond only with TGI recorded for `CCN(CC)CCCNc1ncc(C)c2c1c1ccc3c(O)cccc3c1n2C` 6.74

Respond only with TGI recorded for `CCOC(=O)c1cc(Br)c(-c2onc(C)c2Br)n1C` 53

###

# System: A498 renal
# Assay Details: NCI tumour cell line growth inhibition, 48 h
Property: GI50

Respond only with GI50 recorded for `Cc1nn(C)c2cc(N(C)c3ccnc(Nc4cccc(S(N)(=O)=O)c4)n3)ccc12` 5.27 µM

Respond only with GI50 recorded for `CC[CH2][Sn]([CH2]CC)([O]C(=O)Cc1ccc(F)cc1)[O][Sn]([CH2]CC)([CH2]CC)[O]C(=O)Cc1ccc(F)cc1` 0.149 µM

Respond only with GI50 recorded for `C=C1C(=O)O[C@H]2[C@H]1CC/C(COC(=O)NCc1cc(OC)cc(OC)c1)=C\CC[C@@]1(C)O[C@@H]21` 2.11 µM

Respond only with GI50 recorded for `CCN(CC)CC[n+]1cc2cc(OC)c(OC)cc2c2ccc3cc4c(cc3c21)OCO4` 0.514 µM

###

TGI values by entry
# Tested on: HCT-15 colon
# Assay Details: NCI tumour cell line growth inhibition, 48 h

Worked examples follow.
- Compound: "Oc1cccc2c1[nH]c1c(C3=C[C@@]4(O)CC/C=C\\CCCCN5CC[C@@H]3[C@]3(CC6/C=C\\CCCCN6[C@H]34)C5)nccc12 (stereo not given in full)"
  Property: "TGI"
  Value: "1.86 µM"
- Compound: "C=CCSSc1ncnc2c1ncn2C1OC(CO)C(O)C1O (stereo not given)"
  Property: "TGI"
  Value: "> 100 µM"
- Compound: "COC(=O)[C@@]12C=CC(=O)[C@H]3C[C@@H](C(C(C)C)C1)[C@]32OC (stereo not given in full)"
  Property: "TGI"
  Value: "> 100 µM"
- Compound: "CN(C)c1nc(=NCc2cccnc2)ss1"
  Property: "TGI"
  Value: "> 10 µM"

Kindly consider the entry below.
Respond only with TGI recorded for `O=[N+]([O-])c1cc2c(c([N+](=O)[O-])c1)Nc1ccccc1O2` > 100 µM

###

TGI values by entry
# System: SW-620 colon
# Assay Details: NCI tumour cell line growth inhibition, 48 h

Worked examples follow.
- Molecule: "COc1ccc(C2=NN(C(=O)c3cccnc3)C(O)(c3cc(F)c(Cl)cc3Cl)C2)cc1OC (stereo not drawn)"
  Value: "69.8 µM"
- Molecule: "C=CCSSc1ncnc2c1ncn2C1OC(CO)C(O)C1O (stereo not drawn)"
  Value: "23.2 µM"
- Molecule: "CC/C(SC)=[N+](\\C)[O-]"
  Value: "> 100 µM"

Given `O=C(Cc1ccccc1)NS(=O)(=O)c1ccccc1` , report its TGI on SW-620 colon. > 100 µM

Given `Clc1ccc(-c2nnc(-c3c(Cl)c(Cl)c(Cl)c(Cl)c3-c3nc4ccccc4[nH]3)o2)cc1` , report its TGI on SW-620 colon. > 100 µM

Given `O=c1c(=[n+]2ccc(=C([O-])c3ccccc3)cc2)/c(=N/S(=O)(=O)c2ccccc2)c(=O)c2ccccc12` , report its TGI on SW-620 colon. 22 µM

Given `CN(C)Cc1cc(/C=C/C(=O)c2ccc(Cl)c(Cl)c2)cc(CN(C)C)c1O` , report its TGI on SW-620 colon. 30.1 µM

Given `Nc1nc(-c2ccc(Cl)cc2)cc(-c2ccccc2)c1-c1nc2ccccc2o1` , report its TGI on SW-620 colon. 31.1 µM

###

# Tested on: T-47D breast
# Assay Details: NCI tumour cell line growth inhibition, 48 h; in the data active = GI50 below about 0.43 µM; inactive = the rest
The reply should name one outcome from t = active, f = inactive

- Molecule: "c1ccc2c3c(ccc2c1)-c1c(ccc2c(NCCCCN4CCCCC4)cccc12)C3"
  Test System: "T-47D breast"
  Category Label: "f"
- Molecule: "C=C(C)[C@@H]1CC[C@]2(C(N)=O)CC[C@]3(C)[C@H](CC[C@@H]4[C@@]5(C)C/C(=C/c6cccnc6)[C@H](O)C(C)(C)[C@@H]5CC[C@]43C)[C@@H]12"
  Test System: "T-47D breast"
  Category Label: "f"

In this assay, the call recorded for `Fc1cccc(-c2[nH]nc3nc(Nc4cccnc4)sc23)c1` was what? f

In this assay, the call recorded for `Clc1ccc2c(NCCNc3nc(N4CCCC4)nc4ccccc34)ccnc2c1` was what? f

In this assay, the call recorded for `COc1ccc2c(c1)C(=O)c1c-2c(NCCN(C)C)nc2ccccc12` was what? f

In this assay, the call recorded for `Oc1c(CN2CCN(c3ccccc3F)CC2)cc(Br)c2cccnc12` was what? f

In this assay, the call recorded for `Nc1nc(-c2ccccc2)cc(-c2ccc(Cl)cc2)c1-c1nc2ccccc2o1` was what? f

In this assay, the call recorded for Nc1c2ccccc2nc2ccccc12 (tested in a mixture with another compound) was what? f

###

# System: U251 CNS
# Assay Details: NCI tumour cell line growth inhibition, 48 h
Where a SMILES comes first, the peptide text is derived from it. [ ]: non-standard residue; d: D form. The star is where a group is joined. Bn2Val = CC(C)[C@@H](C(=O)*)N(Cc1ccccc1)Cc1ccccc1; NH(3,4-diMeO-benzyl) = COc1ccc(CN*)cc1OC; NMeV = CN[C@H](C(=O)O)C(C)C
Entry flag: fulfilled if TGI reaches 30 µM; not fulfilled if it does not.

Hi, just wondering whether COc1ccc(CNC(=O)[C@@H]2CCCN2C(=O)[C@@H]2CCCN2C(=O)[C@H](C(C)C)N(C)C(=O)[C@@H](NC(=O)[C@H](C(C)C)N(Cc2ccccc2)Cc2ccccc2)C(C)C)cc1OC (Bn2Val-V[NMeV]PP-{NH(3,4-diMeO-benzyl)}) shows TGI of 30 µM or higher. fulfilled

Hi, just wondering whether `CCOC(=O)c1ccc(Nc2nc3cc(C(F)(F)F)ccc3nc2C(=O)OCC)cc1` shows TGI of 30 µM or higher. fulfilled

Hi, just wondering whether `CC(C)(C)C(=O)/C=C/c1cccc(Oc2ccccc2)c1` shows TGI of 30 µM or higher. not fulfilled

Hi, just wondering whether Cc1ccc(NC(=O)CC2C(=O)Nc3ccccc3S2=O)c(C)c1 (stereo not drawn) shows TGI of 30 µM or higher. not fulfilled

Hi, just wondering whether `CCCc1c(C(=O)OCC)[nH]c(C(=O)CCC(=O)c2[nH]c(C(=O)OCC)c(CCC)c2C(=O)OCC)c1C(=O)OCC` shows TGI of 30 µM or higher. fulfilled

Hi, just wondering whether `Cc1ccc(NC(=O)c2cc3ccccc3cc2O)c(C)c1.Cc1ccc(NC(=O)c2cc3ccccc3cc2[O-])c(C)c1.[Ni+2]` shows TGI of 30 µM or higher. not fulfilled

Hi, just wondering whether `COC(=O)c1ccc(NCC2=CC(=O)C=CC2=O)cc1` shows TGI of 30 µM or higher. not fulfilled

Hi, just wondering whether `CC(C)c1ccc2nc3ccc(C(=O)NCCN4CCN(c5ccccc5)CC4)cn3c(=O)c2c1` shows TGI of 30 µM or higher. fulfilled
